- ASSAY INFO: physchem
- EXPERIMENTAL CONTEXT: pH 2.12, aqueous buffer
REPORTED ENDPOINT: solubility (µg/mL)
Report as a plain number; the unit µg/mL is understood.

Value of solubility reported for the molecule COc1ccccc1OCCNCC(O)COc1cccc2[nH]c3ccccc3c12 (racemic) [Carvedilol] is 2510

###

- ASSAY INFO: physchem
- EXPERIMENTAL CONTEXT: pH 2.54, aqueous buffer
REPORTED ENDPOINT: solubility (µg/mL)
The reply should be a number in µg/mL, with the unit left off.

COc1ccccc1OCCNCC(O)COc1cccc2[nH]c3ccccc3c12 (racemic) yielded solubility of 731

###

- ASSAY INFO: physchem
- EXPERIMENTAL CONTEXT: pH 3.64, aqueous buffer
REPORTED ENDPOINT: solubility

The value of solubility measured for the compound COc1ccccc1OCCNCC(O)COc1cccc2[nH]c3ccccc3c12 (racemic) turned out to be 121 µg/mL

###

- ASSAY INFO: physchem
- EXPERIMENTAL CONTEXT: pH 2.28, aqueous buffer
REPORTED ENDPOINT: solubility
Answer by giving the amount and then stating its unit.

Looking up COc1ccccc1OCCNCC(O)COc1cccc2[nH]c3ccccc3c12 (racemic) , I found its solubility recorded as 1360 µg/mL

###

- ASSAY INFO: physchem
- EXPERIMENTAL CONTEXT: pH 5.9, aqueous buffer
REPORTED ENDPOINT: solubility (µg/mL)
Reply with just the number (in µg/mL).

Entry under test: COc1ccccc1OCCNCC(O)COc1cccc2[nH]c3ccccc3c12 (racemic) [Carvedilol] . Its solubility was 28

###

- ASSAY INFO: physchem
- EXPERIMENTAL CONTEXT: pH 2.94, aqueous buffer
REPORTED ENDPOINT: solubility (µg/mL)
Dear colleague, please return just the value in µg/mL, with no unit written.

Given item COc1ccccc1OCCNCC(O)COc1cccc2[nH]c3ccccc3c12 (racemic) [Carvedilol] , the value recorded as its solubility is 508

The reported measurements were obtained from patent US20070196491A1.
